These measurements were taken from the supplement of paper PMC11061612.

// reported combination Emax for each item listed
- System: CAL-120 (Breast Carcinoma)
- assay: combination Emax (second highest fraction inhibited in the dose matrix, 72 h); higher = more inhibition; extreme values may be limits of the assay

compound	measurement-target	combination Emax
CCc1c2c(nc3ccc(O)cc13)-c1cc3c(c(=O)n1C2)COC(=O)[C@]3(O)CC [SN-38] + O=C(c1cc(Cc2n[nH]c(=O)c3ccccc23)ccc1F)N1CCN(C(=O)C2CC2)CC1 [Olaparib] (first compound max 0.3 µM, 7x7, partner max 10 µM)	CAL-120 (Breast Carcinoma)	0.7
Cc1c2c(nn1C)CSCc1cc(n(C)n1)CSc1cc(c3ccccc3c1)OCCCc1c(C(=O)O)n(C)c3c-2c(Cl)ccc13 [AZD5991] + Cc1cc2ncnn2cc1Nc1ncc2c(n1)n(C1CCOCC1)c(=O)n2C [AZD7648] (first compound max 1 µM, 7x7, partner max 10 µM)	CAL-120 (Breast Carcinoma)	0.252
